// data source = the supplement of paper PMC10567573

B1: CHIT1 (parent)
chain: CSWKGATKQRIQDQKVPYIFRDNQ

Variants of: B1
Assay: protein stability index of a GFP-peptide fusion (GPS, HEK-293T) (PSI 1-6); higher = more stable;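 further: lentivirally expressed fusions sorted by FACS into six bins by GFP to DsRed ratio, PSI derived from sequencing read proportions per bin multiplied by bin number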
Conditions: c terminus: a fixed tail appended
metric.name: protein stability index

seq: CSWKGATKIRIQDQKVPYIFRDNQ [Q9I]
observed: 2.92
--
seq: CSNKGATKQRIQDQKVPYIFRDNQ [W3N]
observed: 2.93
--
seq: CSWKGATKQRIQDQKVPTIFRDNQ [Y18T]
observed: 3.02
--
seq: CSWQGATKQRIQDQKVPYIFRDNQ [K4Q]
observed: 3.06
--
seq: CSWKGATKQRIQDQKVPYIFRDFQ [N23F]
observed: 2.04
--
seq: CSWKGATKQRIQDPKVPYIFRDNQ [Q14P]
observed: 2.98
--
seq: CSWKGATKQRIQDQKVPYWFRDNQ [I19W]
observed: 2.06
--
seq: CSWKGATKQRIQDQKVPYIHRDNQ [F20H]
observed: 3.29
--
seq: CSWKGATKQRIQDQKVPYIFEDNQ [R21E]
observed: 3.68
--
seq: CSWRGATKQRIQDQKVPYIFRDNQ [K4R]
observed: 2.75
--
seq: PSWKGATKQRIQDQKVPYIFRDNQ [C1P]
observed: 2.86
--
seq: CSWKGATMQRIQDQKVPYIFRDNQ [K8M]
observed: 2.01
--
seq: CSWKGATKQRIIDQKVPYIFRDNQ [Q12I]
observed: 2.02
--
seq: CGWKGATKQRIQDQKVPYIFRDNQ [S2G]
observed: 2.07
--
seq: CSWKGATKQRIQDQKVPYIFADNQ [R21A]
observed: 3.06
--
seq: CSWKGATPQRIQDQKVPYIFRDNQ [K8P]
observed: 2.23
--
seq: CSWKGATKQRIQDQKVSYIFRDNQ [P17S]
observed: 1.81
--
seq: CSWKGATKQRIQDSKVPYIFRDNQ [Q14S]
observed: 2.37
--
seq: CSWKGATKQRIQDQKVPYIFRDNE [Q24E]
observed: 4.3
--
seq: CSWKGATKQIIQDQKVPYIFRDNQ [R10I]
observed: 1.64
--
seq: CSWKGATKQRIQDQKVPYKFRDNQ [I19K]
observed: 3.67
--
seq: CSWKGATKQRIQDQKVPYIFRWNQ [D22W]
observed: 1.6
--
seq: CSWKGATKSRIQDQKVPYIFRDNQ [Q9S]
observed: 2.57
--
seq: CSWKGATKQRIQDDKVPYIFRDNQ [Q14D]
observed: 2.81
--
seq: CSWKGATKQRINDQKVPYIFRDNQ [Q12N]
observed: 2.28
--
seq: CSWKGATKVRIQDQKVPYIFRDNQ [Q9V]
observed: 2.44
